This collection of values is drawn from ChEMBL document CHEMBL3751750.

# SYSTEM_UNDER_TEST: Amino acid transporter (Rattus norvegicus, UniProt Q9Z1J7)
# Sequence (Q9Z1J7 whole entry): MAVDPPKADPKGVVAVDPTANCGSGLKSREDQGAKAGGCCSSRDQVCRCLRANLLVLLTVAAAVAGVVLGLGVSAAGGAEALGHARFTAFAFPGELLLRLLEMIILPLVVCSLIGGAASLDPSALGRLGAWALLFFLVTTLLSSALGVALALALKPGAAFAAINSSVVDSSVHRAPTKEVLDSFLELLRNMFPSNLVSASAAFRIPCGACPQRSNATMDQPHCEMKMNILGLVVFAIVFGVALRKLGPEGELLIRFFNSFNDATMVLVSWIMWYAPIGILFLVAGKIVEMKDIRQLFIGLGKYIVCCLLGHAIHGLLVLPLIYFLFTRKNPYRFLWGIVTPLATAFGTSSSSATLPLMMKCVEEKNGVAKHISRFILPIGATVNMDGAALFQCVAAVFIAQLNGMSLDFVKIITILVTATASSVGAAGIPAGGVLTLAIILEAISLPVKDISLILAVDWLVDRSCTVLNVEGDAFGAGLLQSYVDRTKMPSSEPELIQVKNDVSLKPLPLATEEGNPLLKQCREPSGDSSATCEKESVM
# PROTOCOL_DESCRIPTION: Inhibition of ASCT2-mediated glutamine transport in rat C6 cells using [3H]-glutamine after 15 mins by scintillation counting
Provide the reported pIC50 of each item.
Note on pIC50: it is the negative log10 of concentration, concentration in mol/L.

Item N[C@@H](CCN(Cc1ccccc1OCc1ccc(F)cc1)Cc1ccccc1OCc1ccc(F)cc1)C(=O)O ; assay system Amino acid transporter (Rattus norvegicus, UniProt Q9Z1J7); pIC50 reported as 4.95

Item N[C@@H](CCN(Cc1ccccc1OCc1ccccc1F)Cc1ccccc1OCc1ccccc1F)C(=O)O ; assay system Amino acid transporter (Rattus norvegicus, UniProt Q9Z1J7); pIC50 reported as 5.48

Item N[C@@H](CCN(Cc1ccccc1Oc1cccc(F)c1)Cc1ccccc1Oc1cccc(F)c1)C(=O)O ; assay system Amino acid transporter (Rattus norvegicus, UniProt Q9Z1J7); pIC50 reported as 4.44

Item N[C@@H](CCN(Cc1ccccc1Oc1ccccc1F)Cc1ccccc1Oc1ccccc1F)C(=O)O ; assay system Amino acid transporter (Rattus norvegicus, UniProt Q9Z1J7); pIC50 reported as 5.74

Item COc1cccc(Oc2ccccc2CN(CC[C@H](N)C(=O)O)Cc2ccccc2Oc2cccc(OC)c2)c1 ; assay system Amino acid transporter (Rattus norvegicus, UniProt Q9Z1J7); pIC50 reported as 5.89

Item COc1ccc(Oc2ccccc2CN(CC[C@H](N)C(=O)O)Cc2ccccc2Oc2ccc(OC)cc2)cc1 ; assay system Amino acid transporter (Rattus norvegicus, UniProt Q9Z1J7); pIC50 reported as 5.06

Item COc1cccc(COc2ccccc2CN(CC[C@H](N)C(=O)O)Cc2ccccc2OCc2cccc(OC)c2)c1 ; assay system Amino acid transporter (Rattus norvegicus, UniProt Q9Z1J7); pIC50 reported as 5.29

Item N[C@@H](CCN(Cc1ccccc1Oc1ccc(F)cc1)Cc1ccccc1Oc1ccc(F)cc1)C(=O)O ; assay system Amino acid transporter (Rattus norvegicus, UniProt Q9Z1J7); pIC50 reported as 4.98

Item N[C@@H](CCN(Cc1ccccc1OCc1ccccn1)Cc1ccccc1OCc1ccccn1)C(=O)O ; assay system Amino acid transporter (Rattus norvegicus, UniProt Q9Z1J7); pIC50 reported as 5.08

Item Cc1ccccc1COc1ccccc1CN(CC[C@H](N)C(=O)O)Cc1ccccc1OCc1ccccc1C ; assay system Amino acid transporter (Rattus norvegicus, UniProt Q9Z1J7); pIC50 reported as 4.38

Item N[C@@H](CCN(Cc1ccccc1OCc1ccc(Cl)cc1)Cc1ccccc1OCc1ccc(Cl)cc1)C(=O)O ; assay system Amino acid transporter (Rattus norvegicus, UniProt Q9Z1J7); pIC50 reported as 4.70
